Molecular target: T1, DR4 (TRAIL-R1) on cancer cells (human, UniProt O00220 24-468)
T1 sequence: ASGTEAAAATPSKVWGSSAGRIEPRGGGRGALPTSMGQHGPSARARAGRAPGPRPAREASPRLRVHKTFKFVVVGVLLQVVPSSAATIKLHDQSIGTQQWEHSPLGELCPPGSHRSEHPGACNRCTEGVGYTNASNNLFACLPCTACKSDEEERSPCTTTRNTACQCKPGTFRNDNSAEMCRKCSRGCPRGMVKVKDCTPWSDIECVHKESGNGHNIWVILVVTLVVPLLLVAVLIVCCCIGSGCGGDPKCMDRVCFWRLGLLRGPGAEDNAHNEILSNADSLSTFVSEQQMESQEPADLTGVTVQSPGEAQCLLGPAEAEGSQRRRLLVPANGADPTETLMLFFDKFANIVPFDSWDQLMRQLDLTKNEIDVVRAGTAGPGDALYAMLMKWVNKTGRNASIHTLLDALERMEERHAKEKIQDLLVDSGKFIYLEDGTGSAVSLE
Test: cell-based or functional assay
Provide the reported Colo205 % killing (% of TRAIL activity) of each item.
Give the number; % is assumed, so skip it.

Entry 71p88P1A3 (designed binder) EPPTQKPKKIVNAKKDVVNTKMFEELKSRLDTLAQEVALLKEQQALQTVCLKGTKVHMKCFLAFTQTKTFHEASEDCISRGGTLSTPQTGSENDALYEYLRQSVGNEAEIWLGLNGYLAGTGWVDMTGARIAYKNWETEITAQPDGGRVLAWENCAVLSGAANGKWFDKRCRDQLPYICQFGIV : reported Colo205 % killing (% of TRAIL activity) = ?
-7

Entry 71p88P1B9 (designed binder) EPPTQKPKKIVNAKKDVVNTKMFEELKSRLDTLAQEVALLKEQQALQTVCLKGTKVHMKCFLAFTQTKTFHEASEDCISRGGTLSTPQTGSENDALYEYLRQSVGNEAEIWLGLNGWLAGSGWVDMTGARIAYKNWETEITAQPDGGGGWPWENCAVLSGAANGKWFDKRCRDQLPYICQFGIV : reported Colo205 % killing (% of TRAIL activity) = ?
7

Entry 71p88P1B12 (designed binder) EPPTQKPKKIVNAKKDVVNTKMFEELKSRLDTLAQEVALLKEQQALQTVCLKGTKVHMKCFLAFTQTKTFHEASEDCISRGGTLSTPQTGSENDALYEYLRQSVGNEAEIWLGLNGWIEGAGWVDMTGARIAYKNWETEITAQPDGGWRSRWENCAVLSGAANGKWFDKRCRDQLPYICQFGIV : reported Colo205 % killing (% of TRAIL activity) = ?
-10
